- Test system: BDF1 mice, colon carcinoma 38 sc, T/C %
- protocol_notes: NCI In Vivo Anticancer Drug Screen. Data for tumor model Colon Carcinoma 38 (subcutaneous) in B6D2F1 (BDF1) mice
- run_parameters: endpoint: median tumor weight (est.); dose: 50.0 mg/kg/injection; schedule: Q07DX002 (ip); vehicle: suspension in saline; higher = larger tumour
Results filed as inconclusive are left out.
Kindly supply the reported T/C values for the records listed here.

Query: What value of T/C on BDF1 mice, colon carcinoma 38 sc, T/C % does CC(=O)OCC1OC(n2ncc(=O)[nH]c2=O)C(OC(C)=O)C1OC(C)=O (centres undefined) have?
Response: 100 % of control

Query: Tell me reported T/C for CC(C)[C@](O)(C(=O)OCC1=CCN2CC[C@@H](O)[C@@H]12)[C@H](C)O , tested with BDF1 mice, colon carcinoma 38 sc, T/C %.
Response: 74 % of control

Query: Request: T/C, test system BDF1 mice, colon carcinoma 38 sc, T/C %, entry Oc1ccc(O)cc1
Response: 94 % of control

Query: What is its T/C for BDF1 mice, colon carcinoma 38 sc, T/C %? Entry: CCOC(=O)CC(SP(=S)(OC)OC)C(=O)OCC (centres undefined)
Response: 114 % of control

---

- Test system: BDF1 mice, colon carcinoma 38 sc, T/C %
- protocol_notes: NCI In Vivo Anticancer Drug Screen. Data for tumor model Colon Carcinoma 38 (subcutaneous) in B6D2F1 (BDF1) mice
- run_parameters: endpoint: median tumor weight (est.); dose: 200.0 mg/kg/injection; schedule: Q07DX002 (ip); vehicle: saline with Tween-80; higher = larger tumour
Results filed as inconclusive are left out.
measured_quantity: T/C

Query: Dear colleague, I am looking for the recorded T/C of the following compound: CCN(CC)CCNc1ccc(C)c2sc3ccc(O)cc3c(=O)c12
Response: 33 % of control

Query: What measured T/C goes with CN(CO)c1nc(N(C)CO)nc(N(C)CO)n1 ?
Response: 55 % of control

Query: Sample COC1/C=C/O[C@@]2(C)Oc3c(C)c(O)c4c(O)c(cc(O)c4c3C2=O)NC(=O)/C(C)=C\C=C\[C@H](C)C(O)[C@@H](C)[C@@H](O)[C@@H](C)[C@H](OC(C)=O)[C@@H]1C (stereo not given in full) — what was its T/C?
Response: 77 % of control

Query: Sample O=C1c2ccccc2C(=O)c2c1cn1c2Cc2ccccc2C1 — what was its T/C?
Response: 61 % of control

Query: Param item = C/C(=N\NC(N)=O)c1cccc(/C(C)=N/NC(N)=O)n1 ; retrieve measured T/C.
Response: 96 % of control

---

Exercise: state measured T/C for each of the compounds provided.
- System: BDF1 mice, colon carcinoma 38 sc, T/C %
- protocol_notes: NCI In Vivo Anticancer Drug Screen. Data for tumor model Colon Carcinoma 38 (subcutaneous) in B6D2F1 (BDF1) mice
- run_parameters: endpoint: median tumor weight (est.); dose: 8.0 mg/kg/injection; schedule: Q07DX003 (ip); vehicle: Klucel (hydroxypropylcellulose) (HPC); higher = larger tumour
Results filed as inconclusive are left out.

Query: Requested field: T/C. Item: CC[C@]1(O)C[C@H](OC2CC(N(C)C)C(OC3CC(O)C(O)C(C)O3)C(C)O2)c2c(cc3c(c2O)C(=O)c2c(O)ccc(O)c2C3=O)[C@H]1C(=O)OC (some centres undefined)
Response: 21 % of control

Query: State the recorded T/C for this entry: O=C1c2ccccc2C(=O)c2c(NCCNCCO)ccc(NCCNCCO)c21
Response: 65 % of control

Query: Given NC(CSC(c1ccccc1)(c1ccccc1)c1ccccc1)C(=O)O (centres undefined) , state its recorded T/C.
Response: 83 % of control

Query: Request the reported T/C associated with N/C(=N\O)c1cn(C2OC(CO)C(O)C2O)c2ncnc(N)c12 (centres undefined)
Response: 17 % of control
